target_under_test: T1, IL-1beta (UniProt P01584 117-269)
T1 construct: also called IL-1β
experimental_protocol: Biacore
Catalogue of binders with associated fold difference in affinity vs parental
Kindly answer with a numeric value in fold, unit omitted.

| binder | experimental_readout | measured_value |
| --- | --- | --- |
| XPA23 Fab, heavy chain Y101W (Fab, V domains shown) VH: EVQLLESGGGLVQPGGSLRLSCAASGFTFSKYFMFWVRQAPGKGLEWVSVISPSGGMTRYADSVKGRFTISRDNSKNTLYLQMNSLRAEDTAVYYCARVGWGGNSDYWGQGTLVTVSS VL: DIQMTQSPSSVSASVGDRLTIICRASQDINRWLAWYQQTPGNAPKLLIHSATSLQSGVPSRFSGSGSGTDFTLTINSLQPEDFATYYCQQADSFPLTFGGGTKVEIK | fold difference in affinity vs parental | 0.81 |

I have this binder here, XPA23 Fab, heavy chain M57K (Fab, V domains shown) VH: EVQLLESGGGLVQPGGSLRLSCAASGFTFSKYFMFWVRQAPGKGLEWVSVISPSGGKTRYADSVKGRFTISRDNSKNTLYLQMNSLRAEDTAVYYCARVGYGGNSDYWGQGTLVTVSS VL: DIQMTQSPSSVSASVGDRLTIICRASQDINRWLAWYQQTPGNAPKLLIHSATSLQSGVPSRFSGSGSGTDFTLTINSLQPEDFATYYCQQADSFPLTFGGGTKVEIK , and I need its recorded fold difference in affinity vs parental.
0.04

If you can, please state the reported fold difference in affinity vs parental value of XPA23 Fab, heavy chain S30N (Fab, V domains shown) VH: EVQLLESGGGLVQPGGSLRLSCAASGFTFNKYFMFWVRQAPGKGLEWVSVISPSGGMTRYADSVKGRFTISRDNSKNTLYLQMNSLRAEDTAVYYCARVGYGGNSDYWGQGTLVTVSS VL: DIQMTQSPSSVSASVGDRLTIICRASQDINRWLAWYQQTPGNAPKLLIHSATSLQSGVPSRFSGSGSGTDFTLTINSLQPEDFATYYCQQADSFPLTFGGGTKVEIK .
0.15
